Values compiled from patent US20200339680A1.

Reported values of MFI for individual entries
Target: T1, human TMEM106B (human, UniProt Q9NUM4 2-274)
T1 construct: full-length, transiently expressed on HEK293 cells, or natively expressed on HeLa, U251 and A549 cells (the cell is named under assay); also the source of the Pepscan peptides; also called huTMEM106B; huTMEM
Assay: FACS A549;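 also: flow cytometry of cells incubated on ice for 1 h with hybridoma supernatant or purified antibody at 10 µg/mL, dead propidium iodide-positive cells gated out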

TM-6 (antibody, V domains shown, mouse IgG (hybridoma)) VH: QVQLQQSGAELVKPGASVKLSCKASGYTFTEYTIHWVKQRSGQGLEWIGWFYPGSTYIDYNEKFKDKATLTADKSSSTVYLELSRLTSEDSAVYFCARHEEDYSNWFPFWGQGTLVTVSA VL: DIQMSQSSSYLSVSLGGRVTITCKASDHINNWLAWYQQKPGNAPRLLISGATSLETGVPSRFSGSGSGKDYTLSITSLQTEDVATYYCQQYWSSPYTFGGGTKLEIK = 1100 MFI
TM-7 (antibody, V domains shown) VH: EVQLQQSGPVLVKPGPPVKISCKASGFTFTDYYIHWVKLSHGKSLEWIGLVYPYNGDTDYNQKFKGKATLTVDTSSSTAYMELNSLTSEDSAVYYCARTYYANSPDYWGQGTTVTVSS VL: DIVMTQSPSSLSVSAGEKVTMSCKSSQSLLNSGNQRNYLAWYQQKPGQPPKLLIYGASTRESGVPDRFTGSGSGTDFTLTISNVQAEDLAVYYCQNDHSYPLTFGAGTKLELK = 647 MFI
TM-42 (antibody, V domains shown) VH: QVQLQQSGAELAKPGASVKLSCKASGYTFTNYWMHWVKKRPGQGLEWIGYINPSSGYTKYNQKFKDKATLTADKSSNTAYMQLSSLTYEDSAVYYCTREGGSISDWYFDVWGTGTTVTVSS VL: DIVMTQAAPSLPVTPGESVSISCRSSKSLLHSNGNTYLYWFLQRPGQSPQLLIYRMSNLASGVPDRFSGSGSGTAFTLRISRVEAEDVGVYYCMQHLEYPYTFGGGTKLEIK = 947 MFI

Asked: Find the recorded MFI belonging to TM-23 (antibody, V domains shown) VH: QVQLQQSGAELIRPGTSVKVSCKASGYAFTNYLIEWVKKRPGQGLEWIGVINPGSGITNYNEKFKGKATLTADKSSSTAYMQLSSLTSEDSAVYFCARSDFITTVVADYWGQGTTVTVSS VL: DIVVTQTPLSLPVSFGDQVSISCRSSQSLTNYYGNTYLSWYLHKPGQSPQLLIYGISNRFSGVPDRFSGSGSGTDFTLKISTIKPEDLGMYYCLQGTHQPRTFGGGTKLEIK and report it.
Given back: 1090 MFI

Asked: Could you tell me which MFI is on file for TM-28 (antibody, V domains shown) VH: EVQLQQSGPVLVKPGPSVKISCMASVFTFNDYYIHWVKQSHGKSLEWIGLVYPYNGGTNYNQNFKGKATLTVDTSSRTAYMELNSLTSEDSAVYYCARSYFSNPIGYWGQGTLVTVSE VL: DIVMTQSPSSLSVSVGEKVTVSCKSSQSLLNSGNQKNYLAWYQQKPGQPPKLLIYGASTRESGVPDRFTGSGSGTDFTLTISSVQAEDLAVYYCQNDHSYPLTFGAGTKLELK ?
Given back: 2000 MFI

Asked: I am curious: what MFI value has been reported for TM-14 (antibody, V domains shown, mouse IgG (hybridoma)) VH: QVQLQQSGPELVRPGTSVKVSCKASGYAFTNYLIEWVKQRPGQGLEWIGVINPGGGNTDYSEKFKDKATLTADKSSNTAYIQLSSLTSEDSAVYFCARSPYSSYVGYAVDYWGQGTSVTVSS VL: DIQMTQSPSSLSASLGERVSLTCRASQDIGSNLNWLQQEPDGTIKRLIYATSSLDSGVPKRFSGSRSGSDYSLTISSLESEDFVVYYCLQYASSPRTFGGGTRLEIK ?
Given back: 896 MFI

Asked: Which measured MFI value corresponds to TM-3 (antibody, V domains shown) VH: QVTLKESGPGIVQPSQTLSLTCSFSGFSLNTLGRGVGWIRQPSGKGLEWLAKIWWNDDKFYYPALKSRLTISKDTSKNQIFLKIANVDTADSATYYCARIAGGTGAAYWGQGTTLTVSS VL: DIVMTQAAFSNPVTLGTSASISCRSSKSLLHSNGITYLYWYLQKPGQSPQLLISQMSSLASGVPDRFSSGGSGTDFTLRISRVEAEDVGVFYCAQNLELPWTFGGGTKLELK ?
Given back: 1800 MFI
